The values you see were collected from the supplement of paper PMC10065799.

Target: Jak2 (UniProt O60674)
Sequence (O60674 whole entry, looked up): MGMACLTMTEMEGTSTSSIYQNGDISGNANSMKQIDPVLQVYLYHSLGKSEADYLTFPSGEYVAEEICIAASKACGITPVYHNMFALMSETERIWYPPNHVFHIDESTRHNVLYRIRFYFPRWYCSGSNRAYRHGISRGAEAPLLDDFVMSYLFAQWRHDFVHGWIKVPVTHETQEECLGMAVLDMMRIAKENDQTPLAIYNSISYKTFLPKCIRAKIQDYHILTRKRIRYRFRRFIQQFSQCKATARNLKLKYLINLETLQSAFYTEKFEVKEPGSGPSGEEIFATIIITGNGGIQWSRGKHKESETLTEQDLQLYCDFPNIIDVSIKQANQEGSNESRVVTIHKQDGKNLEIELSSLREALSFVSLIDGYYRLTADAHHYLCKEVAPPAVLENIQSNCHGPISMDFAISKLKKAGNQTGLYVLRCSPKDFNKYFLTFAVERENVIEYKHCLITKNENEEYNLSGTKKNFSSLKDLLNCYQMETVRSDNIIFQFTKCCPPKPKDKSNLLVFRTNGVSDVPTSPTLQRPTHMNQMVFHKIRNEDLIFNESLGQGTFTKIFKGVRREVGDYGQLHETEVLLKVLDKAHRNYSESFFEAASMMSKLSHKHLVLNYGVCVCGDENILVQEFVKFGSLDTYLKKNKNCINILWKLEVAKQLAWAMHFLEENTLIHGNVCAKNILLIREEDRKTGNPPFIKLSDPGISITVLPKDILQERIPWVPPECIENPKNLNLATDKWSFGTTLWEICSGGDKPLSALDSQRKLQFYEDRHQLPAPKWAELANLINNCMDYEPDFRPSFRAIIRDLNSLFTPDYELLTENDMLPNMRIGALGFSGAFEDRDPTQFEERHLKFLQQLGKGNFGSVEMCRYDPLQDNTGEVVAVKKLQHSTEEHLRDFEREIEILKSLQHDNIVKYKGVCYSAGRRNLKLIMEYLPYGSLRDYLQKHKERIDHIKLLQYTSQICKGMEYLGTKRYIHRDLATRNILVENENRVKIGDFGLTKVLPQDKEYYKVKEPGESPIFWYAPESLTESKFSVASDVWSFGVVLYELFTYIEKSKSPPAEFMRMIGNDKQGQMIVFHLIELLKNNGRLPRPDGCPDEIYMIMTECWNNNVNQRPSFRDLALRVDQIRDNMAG
Assay: phosphorylation enrichment, bacterial display (enrichment ratio); higher = better substrate or ligand; peptides without Tyr show the background;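 also: 11-residue human phosphosite peptides and single-mutation variants displayed on the E. coli surface, counted by deep sequencing, each peptide's frequency after selection divided by its frequency in the unselected input library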;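 also: frequency after pTyr selection over input frequency; kinase dosed for 20-30% of maximal phosphorylation in three min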
Assign class by phosphorylation enrichment: not lower than 0.8 means y; lower than 0.8 means n.

>>> group("SLALFYRNVYH [RBL1_Y792_K794N]")
"y"
>>> group("ARMTNCGLPRY [TSPAN12_Y138_Y138C]")
"n"
>>> group("LKVKAYRFSIS [LCT_Y974]")
"y"
>>> group("NPETCYQRLKK [TK2_Y190]")
"y"
>>> group("DNAYQYMLTDR [MYH7_Y164]")
"y"
>>> group("FGGTVYHSPVS [PRC1_Y511]")
"n"
>>> group("SSDKVYAHQMD [MLH1_Y379_V384D]")
"n"
>>> group("VMSMNYRVGAL [BCHE_Y174_V170M]")
"n"
>>> group("HELFVYKSDEN [DOCK3_Y548_C550S_YF]")
"y"
>>> group("ETESPYQELQG [TYROBP_Y91]")
"y"
>>> group("CTTIHYNCMCN [TP53_Y234_Y236C]")
"y"
>>> group("KTTILHKLKLG [ARF1_Y35_Y35H]")
"n"
